- Test system: PIK3CA (human), P42336 [Q546K]
- Sequence (P42336 whole entry Q546K, looked up): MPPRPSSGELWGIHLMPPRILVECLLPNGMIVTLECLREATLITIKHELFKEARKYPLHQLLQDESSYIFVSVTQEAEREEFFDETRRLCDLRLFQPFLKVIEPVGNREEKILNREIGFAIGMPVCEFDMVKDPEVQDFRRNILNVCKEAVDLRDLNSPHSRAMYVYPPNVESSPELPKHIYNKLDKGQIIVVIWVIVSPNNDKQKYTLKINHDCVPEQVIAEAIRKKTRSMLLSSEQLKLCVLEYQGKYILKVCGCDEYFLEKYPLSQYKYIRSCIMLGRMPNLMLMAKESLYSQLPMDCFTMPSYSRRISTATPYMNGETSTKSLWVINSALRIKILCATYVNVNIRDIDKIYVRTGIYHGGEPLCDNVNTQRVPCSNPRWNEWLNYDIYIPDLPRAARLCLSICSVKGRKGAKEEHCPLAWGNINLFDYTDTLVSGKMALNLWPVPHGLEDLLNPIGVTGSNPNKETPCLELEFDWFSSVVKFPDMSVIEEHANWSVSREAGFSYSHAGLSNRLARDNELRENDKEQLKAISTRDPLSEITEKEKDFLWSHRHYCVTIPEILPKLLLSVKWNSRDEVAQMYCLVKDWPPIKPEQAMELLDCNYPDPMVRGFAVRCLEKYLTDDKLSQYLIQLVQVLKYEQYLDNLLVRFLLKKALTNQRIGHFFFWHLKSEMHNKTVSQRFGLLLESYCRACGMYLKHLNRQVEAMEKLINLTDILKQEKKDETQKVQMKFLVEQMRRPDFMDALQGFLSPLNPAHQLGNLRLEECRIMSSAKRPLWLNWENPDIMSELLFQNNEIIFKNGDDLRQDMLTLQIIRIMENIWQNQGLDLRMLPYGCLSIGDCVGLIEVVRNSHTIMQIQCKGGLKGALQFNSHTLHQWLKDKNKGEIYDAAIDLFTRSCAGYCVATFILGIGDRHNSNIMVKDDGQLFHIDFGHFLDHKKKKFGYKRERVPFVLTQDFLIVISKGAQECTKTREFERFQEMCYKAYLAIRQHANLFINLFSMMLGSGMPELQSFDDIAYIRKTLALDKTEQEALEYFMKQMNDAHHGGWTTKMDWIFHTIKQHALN
- test.description: KINOMEscan competition binding
- details: compound 10.0 µM
Just a reminder that ties go to class 0: only kinase still bound, per cent of control strictly below 80% counts as class 1.

Check out these entries, answers already filled in.
CCN1CCN(Cc2ccc(Nc3ncc4c(n3)N(C)c3ccccc3C(=O)N4C)cc2C(F)(F)F)CC1 | class 1
COc1cc(C(=O)NC2CCN(C)CC2)ccc1Nc1ncc2c(n1)N(C1CCCC1)CCC(=O)N2C(C)C | class 0

stdin: Item CCc1nc(-c2cccc(C)c2)c(-c2ccnc(NC(=O)c3ccccc3)c2)s1 : kinase still bound, per cent of control beneath 80%, strictly?
stdout: class 1

stdin: Item CS(=O)(=O)N1CCN(Cc2cc3nc(-c4cccc5[nH]ncc45)nc(N4CCOCC4)c3s2)CC1 : kinase still bound, per cent of control beneath 80%, strictly?
stdout: class 1

###

- system.name: ERBB3 (human) (UniProt P21860)
- Sequence (P21860 whole entry, looked up): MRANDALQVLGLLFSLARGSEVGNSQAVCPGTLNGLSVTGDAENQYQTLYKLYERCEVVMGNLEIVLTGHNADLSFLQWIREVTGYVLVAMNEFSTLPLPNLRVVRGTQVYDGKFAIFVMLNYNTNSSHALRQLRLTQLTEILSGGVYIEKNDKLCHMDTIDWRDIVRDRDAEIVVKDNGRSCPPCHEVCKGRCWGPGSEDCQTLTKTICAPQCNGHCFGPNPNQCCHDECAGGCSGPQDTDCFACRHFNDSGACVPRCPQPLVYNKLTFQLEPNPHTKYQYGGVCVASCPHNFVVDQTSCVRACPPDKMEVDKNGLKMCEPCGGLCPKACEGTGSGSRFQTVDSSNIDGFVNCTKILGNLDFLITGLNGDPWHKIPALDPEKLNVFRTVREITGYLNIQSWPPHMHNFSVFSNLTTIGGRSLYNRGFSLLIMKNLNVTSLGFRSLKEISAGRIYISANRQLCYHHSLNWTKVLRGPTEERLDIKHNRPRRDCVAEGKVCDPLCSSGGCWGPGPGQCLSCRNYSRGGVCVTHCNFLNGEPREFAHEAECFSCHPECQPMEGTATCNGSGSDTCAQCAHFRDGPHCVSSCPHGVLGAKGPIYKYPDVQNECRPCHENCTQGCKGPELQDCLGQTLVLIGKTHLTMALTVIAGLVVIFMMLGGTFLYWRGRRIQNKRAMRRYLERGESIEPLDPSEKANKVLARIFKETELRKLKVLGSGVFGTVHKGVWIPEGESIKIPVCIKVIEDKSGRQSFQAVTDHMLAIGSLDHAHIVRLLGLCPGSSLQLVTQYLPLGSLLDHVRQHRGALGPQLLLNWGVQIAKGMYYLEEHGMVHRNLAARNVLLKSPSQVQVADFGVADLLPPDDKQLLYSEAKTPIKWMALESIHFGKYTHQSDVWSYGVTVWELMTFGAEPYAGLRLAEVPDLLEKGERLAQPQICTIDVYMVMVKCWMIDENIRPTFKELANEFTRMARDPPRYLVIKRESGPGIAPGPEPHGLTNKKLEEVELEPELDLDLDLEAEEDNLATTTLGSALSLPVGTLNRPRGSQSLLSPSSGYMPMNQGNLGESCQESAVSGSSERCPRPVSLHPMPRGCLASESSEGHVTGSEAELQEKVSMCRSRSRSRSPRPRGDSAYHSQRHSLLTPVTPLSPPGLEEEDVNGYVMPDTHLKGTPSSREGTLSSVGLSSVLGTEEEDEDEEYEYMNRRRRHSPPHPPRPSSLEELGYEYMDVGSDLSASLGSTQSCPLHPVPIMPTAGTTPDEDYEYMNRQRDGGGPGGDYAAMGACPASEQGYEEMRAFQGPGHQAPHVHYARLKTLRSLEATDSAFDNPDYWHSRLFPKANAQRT
- test.description: KINOMEscan competition binding
- details: compound 10.0 µM
Would you mind telling me the reported kinase still bound, per cent of control of each entry?
Numbers only, in %.

N#Cc1c(NC(=O)c2cccc3ccccc23)sc2c1CCCC2 | 100
Cc1ccc2nc(NCCN)c3ncc(C)n3c2c1 | 83
COc1cc(C(=O)NC2CCN(C)CC2)ccc1Nc1ncc2c(n1)N(C1CCCC1)CCC(=O)N2C(C)C | 100
CCN1CCN(Cc2ccc(Nc3ncc4c(n3)N(C)c3ccccc3C(=O)N4C)cc2C(F)(F)F)CC1 | 75
CCC(=O)N1CCN(c2ccc(-n3c(=O)ccc4cnc5ccc(-c6cnc7ccccc7c6)cc5c43)cc2C(F)(F)F)CC1 | 44
O=C1Nc2ccc(I)cc2/C1=C/c1cc(Br)c(O)c(Br)c1 | 87

Param item: Nc1ccc(-c2ccc3ncc4ccc(=O)n(-c5cccc(C(F)(F)F)c5)c4c3c2)cn1 ; param system: ERBB3 (human) (UniProt P21860); output kinase still bound, per cent of control: 50

###

- system.name: PKN1 (human) (UniProt Q16512)
- Sequence (Q16512 whole entry, looked up): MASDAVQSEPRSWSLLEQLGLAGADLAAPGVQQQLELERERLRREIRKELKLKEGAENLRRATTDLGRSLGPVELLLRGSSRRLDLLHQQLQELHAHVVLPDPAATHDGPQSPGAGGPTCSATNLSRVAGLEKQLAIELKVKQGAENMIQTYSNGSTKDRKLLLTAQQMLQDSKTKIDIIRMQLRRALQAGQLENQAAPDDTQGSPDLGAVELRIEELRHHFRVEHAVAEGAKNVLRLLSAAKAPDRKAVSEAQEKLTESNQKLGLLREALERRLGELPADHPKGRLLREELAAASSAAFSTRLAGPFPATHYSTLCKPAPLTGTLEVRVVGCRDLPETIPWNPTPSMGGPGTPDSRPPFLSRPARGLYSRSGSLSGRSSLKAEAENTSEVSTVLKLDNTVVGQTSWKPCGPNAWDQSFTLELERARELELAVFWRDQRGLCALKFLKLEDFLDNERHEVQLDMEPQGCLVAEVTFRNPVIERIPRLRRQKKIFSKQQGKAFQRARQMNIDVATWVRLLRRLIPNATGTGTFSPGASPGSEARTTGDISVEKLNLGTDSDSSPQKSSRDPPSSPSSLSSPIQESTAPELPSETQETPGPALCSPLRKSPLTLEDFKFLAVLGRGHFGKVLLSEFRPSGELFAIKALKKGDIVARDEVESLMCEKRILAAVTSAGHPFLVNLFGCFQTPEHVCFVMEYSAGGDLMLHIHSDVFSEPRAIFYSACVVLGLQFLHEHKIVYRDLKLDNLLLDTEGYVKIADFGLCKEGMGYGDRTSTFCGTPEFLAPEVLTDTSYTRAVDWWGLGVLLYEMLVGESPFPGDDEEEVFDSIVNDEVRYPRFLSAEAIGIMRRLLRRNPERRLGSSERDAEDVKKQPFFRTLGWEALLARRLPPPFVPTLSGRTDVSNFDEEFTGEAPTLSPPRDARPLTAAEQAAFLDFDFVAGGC
- test.description: KINOMEscan competition binding
- details: compound 10.0 µM
Would you mind telling me the reported kinase still bound, per cent of control of each entry?
One number for each entry, in %.

CCN1CCN(Cc2ccc(Nc3ncc4c(n3)N(C)c3ccccc3C(=O)N4C)cc2C(F)(F)F)CC1 | 76
COc1cc(N2CCN(C)CC2)ccc1Nc1nc(N)c(C(=O)c2c(Cl)cccc2Cl)s1 | 100
C=CC(=O)Nc1cccc(Nc2nc(N[C@H]3CC[C@H](N(C)C)CC3)nc3c2ncn3C(C)C)c1 | 22
CCCS(=O)(=O)Nc1ccc(F)c(C(=O)c2c[nH]c3ncc(-c4ccc(Cl)cc4)cc23)c1F | 78
O=C1Nc2ccc(I)cc2/C1=C/c1cc(Br)c(O)c(Br)c1 | 89
C=CC(=O)Nc1cccc(Oc2nc(Nc3ccc(N4CCN(C)CC4)cc3OC)ncc2Cl)c1 | 100
Cn1c(=O)n(-c2ccc(C(C)(C)C#N)cc2)c2c3cc(-c4cnc5ccccc5c4)ccc3ncc21 | 100
O=C(NOC[C@H](O)CO)c1ccc(F)c(F)c1Nc1ccc(I)cc1F | 100

Let us move to another entry and its kinase still bound, per cent of control.
Field kinase still bound, per cent of control (entry Nc1ccc(-c2ccc3ncc4ccc(=O)n(-c5cccc(C(F)(F)F)c5)c4c3c2)cn1 ) reads 100

###

- system.name: LIMK1 (human) (UniProt P53667)
- Sequence (P53667 whole entry, looked up): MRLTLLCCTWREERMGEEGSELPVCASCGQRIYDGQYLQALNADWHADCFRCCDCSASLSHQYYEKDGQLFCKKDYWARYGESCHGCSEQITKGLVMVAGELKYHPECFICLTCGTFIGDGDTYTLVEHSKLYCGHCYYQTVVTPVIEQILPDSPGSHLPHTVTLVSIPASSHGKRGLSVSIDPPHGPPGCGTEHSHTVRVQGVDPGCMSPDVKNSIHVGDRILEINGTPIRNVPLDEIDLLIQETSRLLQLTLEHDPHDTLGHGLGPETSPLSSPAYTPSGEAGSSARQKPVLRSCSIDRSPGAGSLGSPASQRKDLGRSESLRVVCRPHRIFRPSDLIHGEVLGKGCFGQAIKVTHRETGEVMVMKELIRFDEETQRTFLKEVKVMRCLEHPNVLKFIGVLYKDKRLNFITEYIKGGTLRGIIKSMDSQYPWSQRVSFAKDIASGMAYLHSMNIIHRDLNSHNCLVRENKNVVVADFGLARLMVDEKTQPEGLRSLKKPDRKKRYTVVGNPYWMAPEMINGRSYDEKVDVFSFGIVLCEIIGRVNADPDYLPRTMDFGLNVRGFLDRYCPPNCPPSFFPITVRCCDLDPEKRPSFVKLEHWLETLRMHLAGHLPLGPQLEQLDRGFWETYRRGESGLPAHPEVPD
- test.description: KINOMEscan competition binding
- details: compound 10.0 µM
measured.endpoint: kinase still bound, per cent of control (%)
Give bare numbers, in %.

Here are 6 compounds together with their reported answers.
CN(C)C/C=C/C(=O)Nc1cccc(Nc2ncc3c(n2)N(C)c2ccccc2C(=O)N3C)c1 | 71
C=CC(=O)Nc1cc(NC(=O)c2ccc(C)c(NC(=O)c3ccno3)c2)cc(C(F)(F)F)c1 | 100
C[C@@H](Oc1cc(-n2cnc3ccc(CN4CCN(C)CC4)cc32)sc1C(N)=O)c1ccccc1C(F)(F)F | 100
OCCCNc1cc(-c2ccnc(Nc3cccc(Cl)c3)n2)ccn1 | 100
CC[C@@H]1C(=O)N(C)c2cnc(Nc3ccc(C(=O)NC4CCN(C)CC4)cc3OC)nc2N1C1CCCC1 | 100
O=C1Nc2ccc(I)cc2/C1=C/c1cc(Br)c(O)c(Br)c1 | 100

// for each compound below, give its kinase still bound, per cent of control
1. CCOc1cc2ncc(C#N)c(Nc3ccc(OCc4ccccn4)c(Cl)c3)c2cc1NC(=O)/C=C/CN(C)C
2. O=C(O)c1ccc(Nc2ncc3c(n2)-c2ccc(Cl)cc2C(c2c(F)cccc2F)=NC3)cc1

stdout:
[100, 85]

// for each compound below, give its kinase still bound, per cent of control
1. Nc1ccc(-c2ccc3ncc4ccc(=O)n(-c5cccc(C(F)(F)F)c5)c4c3c2)cn1
2. COc1cc(N2CCN(C)CC2)ccc1Nc1nc(N)c(C(=O)c2c(Cl)cccc2Cl)s1
3. Cc1cc([C@@H](C)Nc2ccccc2C(=O)O)c2nc(N3CCOCC3)cc(=O)n2c1

stdout:
1: 100; 2: 74; 3: 100

###

Would you mind telling me the reported kinase still bound, per cent of control of each entry?
- system.name: ACVR2A (human) (UniProt P27037)
- Sequence (P27037 whole entry, looked up): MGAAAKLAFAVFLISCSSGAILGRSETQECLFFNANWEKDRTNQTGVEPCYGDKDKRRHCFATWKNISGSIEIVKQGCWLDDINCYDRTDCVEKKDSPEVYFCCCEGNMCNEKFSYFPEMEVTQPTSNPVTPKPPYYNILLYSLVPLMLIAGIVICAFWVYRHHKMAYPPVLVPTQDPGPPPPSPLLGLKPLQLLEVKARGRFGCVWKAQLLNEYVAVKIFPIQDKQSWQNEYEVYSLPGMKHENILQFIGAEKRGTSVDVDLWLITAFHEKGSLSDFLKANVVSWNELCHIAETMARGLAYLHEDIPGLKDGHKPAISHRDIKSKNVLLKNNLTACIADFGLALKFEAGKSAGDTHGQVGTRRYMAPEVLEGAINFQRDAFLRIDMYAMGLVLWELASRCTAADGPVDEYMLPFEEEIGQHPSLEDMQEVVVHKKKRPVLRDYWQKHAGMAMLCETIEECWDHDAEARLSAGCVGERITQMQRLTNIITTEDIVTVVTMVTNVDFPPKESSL
- test.description: KINOMEscan competition binding
- details: compound 10.0 µM

Cc1cc([C@@H](C)Nc2ccccc2C(=O)O)c2nc(N3CCOCC3)cc(=O)n2c1 | 94%
Nc1ccc(-c2ccc3ncc4ccc(=O)n(-c5cccc(C(F)(F)F)c5)c4c3c2)cn1 | 95%
CCC(=O)N1CCN(c2ccc(-n3c(=O)ccc4cnc5ccc(-c6cnc7ccccc7c6)cc5c43)cc2C(F)(F)F)CC1 | 47%
CN(C)C/C=C/C(=O)Nc1cccc(Nc2ncc3c(n2)N(C)c2ccccc2C(=O)N3C)c1 | 57%
O=C1Nc2ccc(I)cc2/C1=C/c1cc(Br)c(O)c(Br)c1 | 100%

// for each compound below, give its kinase still bound, per cent of control
1. Cc1ccc(NC(=O)c2cccc(C(C)(C)C#N)c2)cc1Nc1ccc2ncn(C)c(=O)c2c1
2. CC[C@@H]1C(=O)N(C)c2cnc(Nc3ccc(C(=O)NC4CCN(C)CC4)cc3OC)nc2N1C1CCCC1
3. COc1cc(C(=O)NC2CCN(C)CC2)ccc1Nc1ncc2c(n1)N(C1CCCC1)C(C)CC(=O)N2C (centres undefined)

stdout:
1. 100%
2. 100%
3. 100%

Param item: O=C(O)c1ccc(Nc2ncc3c(n2)-c2ccc(Cl)cc2C(c2c(F)cccc2F)=NC3)cc1 ; param system: ACVR2A (human) (UniProt P27037); output kinase still bound, per cent of control: 95%

###

- system.name: FGFR4 (human)
- test.description: KINOMEscan competition binding
- details: compound 10.0 µM
Would you mind telling me the reported kinase still bound, per cent of control of each entry?
Give bare numbers, in %.

Here are 9 compounds together with their reported answers.
CCOc1cc2ncc(C#N)c(Nc3ccc(OCc4ccccn4)c(Cl)c3)c2cc1NC(=O)/C=C/CN(C)C | 100
CCCS(=O)(=O)Nc1ccc(F)c(C(=O)c2c[nH]c3ncc(-c4ccc(Cl)cc4)cc23)c1F | 100
OCCCNc1cc(-c2ccnc(Nc3cccc(Cl)c3)n2)ccn1 | 100
Cc1ccc(C(=O)Nc2cccc(C(F)(F)F)c2)cc1Nc1cncc(C(N)=O)c1 | 100
COc1cc(C(=O)NC2CCN(C)CC2)ccc1Nc1ncc2c(n1)N(C1CCCC1)CCC(=O)N2C(C)C | 100
O=C1Nc2ccc(I)cc2/C1=C/c1cc(Br)c(O)c(Br)c1 | 100
O=C(NC1CC1)c1cccc(-c2ccc3c(NC(=O)C4CC4)n[nH]c3c2)c1 | 94
O=C(NOC[C@H](O)CO)c1ccc(F)c(F)c1Nc1ccc(I)cc1F | 54
O=C(O)c1ccc(Nc2ncc3c(n2)-c2ccc(Cl)cc2C(c2c(F)cccc2F)=NC3)cc1 | 58

Let us move to another entry and its kinase still bound, per cent of control.
Field kinase still bound, per cent of control (entry Cc1cc([C@@H](C)Nc2ccccc2C(=O)O)c2nc(N3CCOCC3)cc(=O)n2c1 ) reads 100

###

- system.name: GSK3A (human) (UniProt P49840)
- Sequence (P49840 whole entry, looked up): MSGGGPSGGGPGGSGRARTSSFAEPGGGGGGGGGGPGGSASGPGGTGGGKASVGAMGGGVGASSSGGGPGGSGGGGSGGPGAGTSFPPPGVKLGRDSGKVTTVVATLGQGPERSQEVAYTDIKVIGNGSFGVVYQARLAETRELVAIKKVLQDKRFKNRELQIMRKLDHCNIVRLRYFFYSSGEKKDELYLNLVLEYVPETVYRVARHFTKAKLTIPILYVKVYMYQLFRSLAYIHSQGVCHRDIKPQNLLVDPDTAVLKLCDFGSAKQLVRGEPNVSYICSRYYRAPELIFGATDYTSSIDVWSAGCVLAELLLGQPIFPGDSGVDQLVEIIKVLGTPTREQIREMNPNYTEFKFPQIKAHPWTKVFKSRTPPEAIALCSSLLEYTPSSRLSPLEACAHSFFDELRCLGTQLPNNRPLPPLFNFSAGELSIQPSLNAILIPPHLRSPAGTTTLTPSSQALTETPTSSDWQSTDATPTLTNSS
- test.description: KINOMEscan competition binding
- details: compound 10.0 µM
Would you mind telling me the reported kinase still bound, per cent of control of each entry?
Answers are plain numbers, in %.

Here are 5 compounds together with their reported answers.
COc1cc(N2CCN(C)CC2)ccc1Nc1nc(N)c(C(=O)c2c(Cl)cccc2Cl)s1 | 67
Cc1ccc(NC(=O)c2cccc(C(C)(C)C#N)c2)cc1Nc1ccc2ncn(C)c(=O)c2c1 | 100
Cc1ccc(C(=O)Nc2cccc(C(F)(F)F)c2)cc1Nc1cncc(C(N)=O)c1 | 100
O=C(NOC[C@H](O)CO)c1ccc(F)c(F)c1Nc1ccc(I)cc1F | 90
C=CC(=O)Nc1cc(NC(=O)c2ccc(C)c(NC(=O)c3ccno3)c2)cc(C(F)(F)F)c1 | 100

// for each compound below, give its kinase still bound, per cent of control
1. Cc1cc([C@@H](C)Nc2ccccc2C(=O)O)c2nc(N3CCOCC3)cc(=O)n2c1
2. O=C(NC1CC1)c1cccc(-c2ccc3c(NC(=O)C4CC4)n[nH]c3c2)c1

stdout:
1. 100
2. 84

// for each compound below, give its kinase still bound, per cent of control
1. COc1cc(C(=O)NC2CCN(C)CC2)ccc1Nc1ncc2c(n1)N(C1CCCC1)CCC(=O)N2C(C)C
2. Cn1c(=O)n(-c2ccc(C(C)(C)C#N)cc2)c2c3cc(-c4cnc5ccccc5c4)ccc3ncc21

stdout:
100
100
